The values you see were collected from patent US20090068637A1.

- System: non-H5 viruses (14 strains; H1~H13, Chicken NDV)
- Assay Protocol: cell-based or functional assay
Attribute Measured: HI assay: positive number/total virus number (of 14 strains)

Query: Entry monoclonal antibody 4D1 (antibody, V domains shown) VH: QVQLQQPGAELVKPGASVNLSCKASGYTFTSYWMHWVKQRPGQGLEWIGEIDPSDSFTTYNQNFKDRATLTVDKSSSTAYMQLRSLTSEDSAVYYCARGGPGDFRYAMDYWGQGTSVTVSS VL: DILMTQSPSSMSVSLGDTVSITCHASQGISSNIGWLQQKPGKSFKGLIYHGTNLEDGVPSRFSGSGSGADYSLTISSLESEDFADYYCVQYVQFPYTFGGGTKLEIKR has what HI assay: positive number/total virus number (of 14 strains)?
Response: 0
